- assay_notes: Intrinsic clearance in mouse liver at 10 uM measured per kg body weight
- Assay type: ADME, tissue-based
measured_endpoint: CLH (mL/min/kg)

* O=C1CC(c2nc(-c3ccc(F)c4cn[nH]c34)no2)CCCN1c1ccc(F)cc1 (stereo unspecified) | 415

====

- study_system: UniProt:P34972
- Sequence (P34972 whole entry): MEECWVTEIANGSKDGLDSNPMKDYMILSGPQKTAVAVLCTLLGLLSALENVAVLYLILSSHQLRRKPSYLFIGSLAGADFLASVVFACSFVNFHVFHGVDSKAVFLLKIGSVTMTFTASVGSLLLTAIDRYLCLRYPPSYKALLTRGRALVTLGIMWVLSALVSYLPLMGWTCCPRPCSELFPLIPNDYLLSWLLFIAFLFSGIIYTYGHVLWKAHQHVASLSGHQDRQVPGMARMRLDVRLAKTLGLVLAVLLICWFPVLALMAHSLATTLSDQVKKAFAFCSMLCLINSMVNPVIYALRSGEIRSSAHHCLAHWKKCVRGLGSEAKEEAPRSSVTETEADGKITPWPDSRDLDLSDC
- assay_notes: Agonist activity at human CB2 receptor expressed in CHO cells assessed as inhibition of forskolin-stimulated intracellular cAMP accumulation measured after 30 mins by Glosensor assay
- Assay type: functional, cell-based
Overview of recorded EC50 for various compounds
measured_endpoint: EC50 (nM)

• O=C1CC(c2nc(-c3ccc(F)c4cn[nH]c34)no2)CCCN1c1ccc(F)c(F)c1 (stereo unspecified) = 318
• O=C1CC(c2nc(-c3ccc(F)cc3)no2)CCCN1c1ccc(F)cc1 (stereo unspecified) = 1390
• O=C1CC(c2nc(-c3ccc(F)c4cn[nH]c34)no2)CCCN1c1cccc(F)c1F (stereo unspecified) = 332
• Cc1cc(F)ccc1-c1noc(C2CCCN(c3ccc(F)cc3)C(=O)C2)n1 (stereo unspecified) = 3300
• O=C1CC(c2nc(-c3ccc(F)c4cn[nH]c34)no2)CCCN1c1ccccc1F (stereo unspecified) = 45.4
• COc1cc(F)ccc1-c1noc(C2CCCN(c3ccc(F)cc3)C(=O)C2)n1 (stereo unspecified) = 445
• O=C1CC(c2nc(-c3ccc(F)c4cn[nH]c34)no2)CCCN1c1ccc(F)cc1 (stereo unspecified) = 21
• O=C1CC(c2nc(-c3ccc(F)c4cn[nH]c34)no2)CCCN1c1ccc(F)cc1F (stereo unspecified) = 110
• O=C1CC(c2nc(-c3ccc(F)c4cn[nH]c34)no2)CCCN1c1ccc(Cl)cc1 (stereo unspecified) = 805
• O=C1CC(c2nc(-c3ccccc3)no2)CCCN1c1ccc(F)cc1 (stereo unspecified) = 2810
• O=C1CC(c2nc(-c3ccc(F)c4cn[nH]c34)no2)CCCN1c1ccc(OC(F)(F)F)cc1 (stereo unspecified) = 2050
• O=C1CC(c2nc(-c3ccc(F)c4ccccc34)no2)CCCN1c1ccc(F)cc1 (stereo unspecified) = 1210
• COc1ccc(N2CCCC(c3nc(-c4ccc(F)c5cn[nH]c45)no3)CC2=O)cc1 (stereo unspecified) = 1210

Every entry's value here was drawn from ChEMBL document CHEMBL5344413.
